Overview of reported activation at 50 µM across a group of compounds:
# SYSTEM: human pancreas Glucokinase (GK) (Homo sapiens)
# Construct: (His)6; made in house; host or cells: Escherichia coli
# Sequence (P35557 whole entry): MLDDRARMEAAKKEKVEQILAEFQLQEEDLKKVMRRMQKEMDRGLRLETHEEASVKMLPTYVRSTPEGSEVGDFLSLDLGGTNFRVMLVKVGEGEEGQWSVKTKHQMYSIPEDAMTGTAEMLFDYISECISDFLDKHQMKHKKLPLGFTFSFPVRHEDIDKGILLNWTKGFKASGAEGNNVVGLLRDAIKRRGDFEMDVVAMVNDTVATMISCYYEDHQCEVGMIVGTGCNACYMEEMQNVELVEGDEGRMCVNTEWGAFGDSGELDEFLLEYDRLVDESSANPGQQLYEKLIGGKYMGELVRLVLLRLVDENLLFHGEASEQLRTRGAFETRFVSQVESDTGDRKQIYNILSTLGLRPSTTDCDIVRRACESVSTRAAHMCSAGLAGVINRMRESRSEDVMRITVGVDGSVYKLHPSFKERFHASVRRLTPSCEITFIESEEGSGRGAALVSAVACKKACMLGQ
# TEST: Glucokinase enzyme assay, pancreas GK
# Type: biochemical
# CONDITION DETAILS: percentage increase in GK activity above vehicle control, compound 50 μM, 12 mM glucose
MEASURED ENDPOINT: activation at 50 µM (%)

>>> df
                                   compound  value_unit  value
0  O=C(CSC1C2=C(CCCC2)C(=O)N1Cc1ccc([N+](=O)[O-])cc1)Nc1ccccn1 (stereo not shown)           %   79.4
1  O=C(CSC1C2=C(CCCC2)C(=O)N1Cc1ccc(F)cc1)Nc1ccc(C(=O)O)cn1 (stereo not shown)           %    165
2  O=C(CSC1C2=C(CCCC2)C(=O)N1Cc1cccc2ccccc12)Nc1ccccn1 (stereo not shown)           %    125
3  COc1ccc(CN2C(=O)C3=C(CCCC3)C2SCC(=O)Nc2nccs2)cc1OC (stereo not shown)           %    143
